# System: SFV-Rluc
// SFV replication % left (surviving fraction, remaining percentage of SFV replication) lookup, one value per entry
Measurement Kind: SFV replication % left (surviving fraction, remaining percentage of SFV replication) (%)

{"Compound": "CC1=C2[C@H]3OC(=O)[C@@H](C)[C@@H]3CC[C@@]2(C)C=CC1=O", "Recorded Measurement": 99.9}
{"Compound": "CCC1(c2ccccc2)C(=O)NC(=O)NC1=O [PC-153]", "Recorded Measurement": 58.6}
{"Compound": "O=C(O)c1cc(-c2ccccc2)nc2ccccc12", "Recorded Measurement": 65.1}
{"Compound": "Cc1c(C)c2c(c(C)c1O)CCC(C)(C(=O)O)O2 (centres unmarked)", "Recorded Measurement": 76.9}
{"Compound": "C[N+]1(C)[C@@H]2CC[C@H]1C[C@@H](OC(=O)C(CO)c1ccccc1)C2 (some centres unmarked) [Atropine methyl nitrate]", "Recorded Measurement": 46.8}
